Target: T1, biotin-labeled human ADM (human, not fully specified; biotin label (named human ADM-C-biotin in Example 1.4; position of the biotin not stated for the other lots))
T1 construct: Synthetic peptide; also called human ADM-C-biotin; hADM-Biotin
T1 peptide: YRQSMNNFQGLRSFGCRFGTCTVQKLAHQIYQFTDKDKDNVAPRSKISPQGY
Test: BLI (Octet RED96e), as in Example 3
A collection of binders and their measured Response value
Enter the number alone.

Some solved cases for reference:
Binder | Response value
Ab2004.Am38 (IgG1 antibody) (antibody, V domains shown, Expressed in CHO cells, human IgG1/kappa) VH: QVQLVQSGAEVKKPGASVKVSCKASGYTFTSYGISWVRQAPGQGLEWMGWISPYTGKTNYAQKLQGRVTMTRDTSTSTAYMELRSLRSDDTAVYYCAREGRWGGSFNIWGQGTMVTVSS VL: DIQMTQSPSSLSASVGDRVTITCRASQGISSYLAWYQQKPGKAPKLLIYDTSDLDTGVPSRFSGSGSGTDFTFTISSLQPEDIATYYCQQYDNLPLTFGGGTKVEIKR | 2.83
Ab2004.Am35 (IgG1 antibody) (antibody, V domains shown, Expressed in CHO cells, human IgG1/kappa) VH: QVQLVQSGAEVKKPGASVKVSCKASGYTFTQYGIAWVRQAPGQGLEWMGWISAYQGNTNYAQKLQGRVTMTRDTSTSTAYMELRSLRSDDTAVYYCAREGRWGGSFNIWGQGTMVTVSS VL: DIQMTQSPSSLSASVGDRVTITCRASQGISSYLAWYQQKPGKAPKLLIYDVSILDAGVPSRFSGSGSGTDFTFTISSLQPEDIATYYCQQYDNLPLTFGGGTKVEIKR | 1.96
Ab2004.Am36 (IgG1 antibody) (antibody, V domains shown, Expressed in CHO cells, human IgG1/kappa) VH: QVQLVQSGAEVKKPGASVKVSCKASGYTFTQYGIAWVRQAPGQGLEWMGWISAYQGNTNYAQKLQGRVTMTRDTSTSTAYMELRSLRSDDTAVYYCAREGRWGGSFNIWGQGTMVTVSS VL: DIQMTQSPSSLSASVGDRVTITCRASQGISSYLAWYQQKPGKAPKLLIYDASNVDTGVPSRFSGSGSGTDFTFTISSLQPEDIATYYCQQYDNLPLTFGGGTKVEIKR | 2.7
fully human antibody Ab2004.Am01 (expressed antibody) (antibody, V domains shown, also called parent antibody Ab2004.Am01) VH: QVQLVQSGAEVKKPGASVKVSCKASGYTFTSYGISWVRQAPGQGLEWMGWISAYQGNTNYAQKLQGRVTMTRDTSTSTAYMELRSLRSDDTAVYYCAREGRWGGSFNIWGQGTMVTVSS VL: DIQMTQSPSSLSASVGDRVTITCRASQGISSYLAWYQQKPGKAPKLLIYDASNLETGVPSRFSGSGSGTDFTFTISSLQPEDIATYYCQQYDNLPLTFGGGTKVEIK | 2.34

Proceed to the following item.
Ab2004.Am39 (IgG1 antibody) (antibody, V domains shown, Expressed in CHO cells, human IgG1/kappa) VH: QVQLVQSGAEVKKPGASVKVSCKASGYTFTHYGIAWVRQAPGQGLEWMGWISAYQGNTNYAQKLQGRVTMTRDTSTSTAYMELRSLRSDDTAVYYCAREGRWGGSFNIWGQGTMVTVSS VL: DIQMTQSPSSLSASVGDRVTITCRASQGISSYLAWYQQKPGKAPKLLIYDASNLETGVPSRFSGSGSGTDFTFTISSLQPEDIATYYCQQYDDLDLTFGGGTKVEIKR has a reported Response value of 2.57
